Target: Angiotensin II receptor (AT-1) type-1 (Rattus norvegicus, UniProt P29089+P25095)
Experiment: In vitro binding affinity to the angiotensin II receptor, type 1 in rat liver
Where a SMILES comes first, the peptide text is derived from it. Bridges are numbered along the chain shown (N, C = ends). [ ]: non-standard residue; d: D form. hCys = N[C@@H](CCS)C(=O)O; Sar = CNCC(=O)O
The following molecules are listed with their measured IC50 values.
Give the number; nM is assumed, so skip it.

Worked examples follow.
[
  {
    "Molecule": "CC[C@H](C)[C@H](NC(=O)[C@H](Cc1ccc(O)cc1)NC(=O)[C@@H](NC(=O)[C@@H](N)CCCN=C(N)N)C(C)C)C(=O)N[C@@H](Cc1c[nH]cn1)C(=O)N1CCC[C@H]1C(=O)N[C@@H](Cc1ccccc1)C(=O)O",
    "Unit Info": "nM",
    "Reported Value": 5.57
  },
  {
    "Molecule": "CNCC(=O)N[C@@H](CCCN=C(N)N)C(=O)N[C@H]1CSSC[C@@H](C(=O)N[C@@H](Cc2c[nH]cn2)C(=O)N2CCC[C@H]2C(=O)N[C@@H](Cc2ccccc2)C(=O)O)NC(=O)[C@H](Cc2ccc(O)cc2)NC1=O (H-[Sar]RCYCHPF-OH; disulfide 3-5)",
    "Unit Info": "nM",
    "Reported Value": 7.6
  }
]

Query string: IC50 for CNCC(=O)N[C@@H](CCCN=C(N)N)C(=O)N[C@H]1CSSCC[C@@H](C(=O)N[C@@H](Cc2c[nH]cn2)C(=O)N2CCC[C@H]2C(=O)N[C@@H](Cc2ccccc2)C(=O)O)NC(=O)[C@H](Cc2ccc(O)cc2)NC1=O (H-[Sar]RCY[hCys]HPF-OH; disulfide 3-5) ?
Result string: 2.6

###

Molecular target: Angiotensin II receptor (AT-1) type-1 (Rattus norvegicus, UniProt P29089+P25095)
Sequence (P29089 whole entry): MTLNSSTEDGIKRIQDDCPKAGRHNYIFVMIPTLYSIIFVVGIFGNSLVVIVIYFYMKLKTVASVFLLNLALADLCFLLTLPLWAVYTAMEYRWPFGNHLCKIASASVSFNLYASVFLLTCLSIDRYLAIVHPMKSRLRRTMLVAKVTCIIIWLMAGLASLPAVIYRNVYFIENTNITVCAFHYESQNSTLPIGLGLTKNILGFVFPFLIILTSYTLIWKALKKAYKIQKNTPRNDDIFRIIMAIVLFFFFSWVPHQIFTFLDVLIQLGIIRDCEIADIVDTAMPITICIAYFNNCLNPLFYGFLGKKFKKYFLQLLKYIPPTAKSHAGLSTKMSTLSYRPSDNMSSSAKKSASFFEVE
Sequence (P25095 whole entry): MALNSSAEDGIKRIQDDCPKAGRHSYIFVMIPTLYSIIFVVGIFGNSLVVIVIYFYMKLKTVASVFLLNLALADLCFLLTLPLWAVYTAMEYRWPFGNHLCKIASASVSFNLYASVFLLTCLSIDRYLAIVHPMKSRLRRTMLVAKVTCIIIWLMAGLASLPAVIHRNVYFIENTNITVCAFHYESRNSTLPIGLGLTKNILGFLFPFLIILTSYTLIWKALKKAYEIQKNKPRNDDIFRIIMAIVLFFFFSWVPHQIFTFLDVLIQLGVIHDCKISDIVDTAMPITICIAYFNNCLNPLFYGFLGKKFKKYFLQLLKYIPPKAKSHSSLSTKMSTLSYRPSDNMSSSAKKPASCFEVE
Test: In vitro binding affinity to the angiotensin II receptor, type 1 in rat liver
*1 amine or outer side, *2 acyl side, *3 side chain or, on linkers, in order; H or OH if unused. Where a SMILES comes first, the peptide text is derived from it. Bridges are numbered along the chain shown (N, C = ends). [ ]: non-standard residue; d: D form. Pro(4R-SH) = O=C([C@@H]1C[C@@H](S[*:3])CN1[*:1])[*:2]; hCys = N[C@@H](CCS)C(=O)O; Sar = CNCC(=O)O
Property Name: IC50 (nM)
Report the value in nM with no unit label.

[
  {
    "Compound": "CNCC(=O)N[C@@H](CCCN=C(N)N)C(=O)N[C@H]1CC(=O)NCCCC[C@@H](C(=O)N[C@@H](Cc2c[nH]cn2)C(=O)N2CCC[C@H]2C(=O)N[C@@H](Cc2ccccc2)C(=O)O)NC(=O)[C@H](Cc2ccc(O)cc2)NC1=O (H-[Sar]RDYKHPF-OH; lactam 3-5)",
    "Reported Value": 12
  }
]

Query string: Any idea what IC50 was measured for `CNCC(=O)N[C@@H](CCCN=C(N)N)C(=O)N1C[C@@H]2C[C@H]1C(=O)N[C@@H](Cc1ccc(O)cc1)C(=O)N[C@H](C(=O)N[C@@H](Cc1c[nH]cn1)C(=O)N1CCC[C@H]1C(=O)N[C@@H](Cc1ccccc1)C(=O)O)CSSC[C@H](C(=O)N[C@H](Cc1c[nH]cn1)C(=O)N1CCC[C@@H]1C(=O)N[C@H](Cc1ccccc1)C(=O)O)NC(=O)[C@@H](Cc1ccc(O)cc1)NC(=O)[C@H]1C[C@H](CN1C(=O)[C@@H](CCCN=C(N)N)NC(=O)CNC)SS2` ?
Result string: 190

Query string: Item CNCC(=O)N[C@@H](CCCN=C(N)N)C(=O)N1C[C@H]2C[C@H]1C(=O)N[C@@H](Cc1ccc(O)cc1)C(=O)N[C@H](C(=O)N[C@@H](Cc1c[nH]cn1)C(=O)N1CCC[C@H]1C(=O)N[C@@H](Cc1ccccc1)C(=O)O)CCSS2 (H-[Sar]R[Pro(4R-SH)]Y[hCys]HPF-OH; disulfide 3-5) has what recorded IC50?
Result string: 29

Query string: Record request: IC50 value, item CNCC(=O)N[C@@H](CCCN=C(N)N)C(=O)N[C@H]1CSSC[C@@H](C(=O)N[C@@H](Cc2ccccc2)C(=O)O)NC(=O)[C@H](Cc2c[nH]cn2)NC(=O)[C@H](C(C)C)NC(=O)[C@H](Cc2ccc(O)cc2)NC1=O (H-[Sar]RCYVHCF-OH; disulfide 3-7)
Result string: 1230

###

Species on record: Oryctolagus cuniculus
Test: Agonist efficacy assessed from contractile responses on rabbit aorta (AT1)
Assay type: functional
*1 amine or outer side, *2 acyl side, *3 side chain or, on linkers, in order; H or OH if unused. Where a SMILES comes first, the peptide text is derived from it. Bridges are numbered along the chain shown (N, C = ends). [ ]: non-standard residue; d: D form. Pro(4R-SH) = O=C([C@@H]1C[C@@H](S[*:3])CN1[*:1])[*:2]; Pro(4S-SH) = O=C([C@@H]1C[C@H](S[*:3])CN1[*:1])[*:2]; hCys = N[C@@H](CCS)C(=O)O; Sar = CNCC(=O)O
Property Name: pEC50
// returns pEC50 (minus log10 of molar concentration), number only

[
  {
    "Molecule": "CNCC(=O)N[C@@H](CCCN=C(N)N)C(=O)N[C@H]1CCSS[C@H]2C[C@@H](C(=O)N[C@@H](Cc3c[nH]cn3)C(=O)N3CCC[C@H]3C(=O)N[C@@H](Cc3ccccc3)C(=O)O)N(C2)C(=O)[C@H](Cc2ccc(O)cc2)NC1=O (H-[Sar]R[hCys]Y[Pro(4S-SH)]HPF-OH; disulfide 3-5)",
    "Reported Value": 6.16
  },
  {
    "Molecule": "CNCC(=O)N[C@@H](CCCN=C(N)N)C(=O)N1C[C@H]2C[C@H]1C(=O)N[C@@H](Cc1ccc(O)cc1)C(=O)N[C@H](C(=O)N[C@@H](Cc1c[nH]cn1)C(=O)N1CCC[C@H]1C(=O)N[C@@H](Cc1ccccc1)C(=O)O)CCSS2 (H-[Sar]R[Pro(4R-SH)]Y[hCys]HPF-OH; disulfide 3-5)",
    "Reported Value": 6.15
  }
]

Now consider a different molecule.
Query string: Reported pEC50 for CNCC(=O)N[C@@H](CCCN=C(N)N)C(=O)N[C@H]1CCSS[C@@H]2C[C@@H](C(=O)N[C@@H](Cc3c[nH]cn3)C(=O)N3CCC[C@H]3C(=O)N[C@@H](Cc3ccccc3)C(=O)O)N(C2)C(=O)[C@H](Cc2ccc(O)cc2)NC1=O (H-[Sar]R[hCys]Y[Pro(4R-SH)]HPF-OH; disulfide 3-5) : what is it?
Result string: 7.89

###

Species on record: Oryctolagus cuniculus
Assay: Agonist efficacy assessed from contractile responses on rabbit aorta (AT1)
Format: functional
*1 amine or outer side, *2 acyl side, *3 side chain or, on linkers, in order; H or OH if unused. Where a SMILES comes first, the peptide text is derived from it. Bridges are numbered along the chain shown (N, C = ends). [ ]: non-standard residue; d: D form. Pro(4R-SH) = O=C([C@@H]1C[C@@H](S[*:3])CN1[*:1])[*:2]; Pro(4S-SH) = O=C([C@@H]1C[C@H](S[*:3])CN1[*:1])[*:2]; hCys = N[C@@H](CCS)C(=O)O; Sar = CNCC(=O)O
Entries and their EC50
A complete answer gives the number and then names the unit.

Use these answered entries as a reference point.
[
  {
    "Molecule": "CNCC(=O)N[C@@H](CCCN=C(N)N)C(=O)N1C[C@@H]2C[C@H]1C(=O)N[C@@H](Cc1ccc(O)cc1)C(=O)N[C@H](C(=O)N[C@@H](Cc1c[nH]cn1)C(=O)N1CCC[C@H]1C(=O)N[C@@H](Cc1ccccc1)C(=O)O)CSSC[C@H](C(=O)N[C@H](Cc1c[nH]cn1)C(=O)N1CCC[C@@H]1C(=O)N[C@H](Cc1ccccc1)C(=O)O)NC(=O)[C@@H](Cc1ccc(O)cc1)NC(=O)[C@H]1C[C@H](CN1C(=O)[C@@H](CCCN=C(N)N)NC(=O)CNC)SS2",
    "Property Name": "EC50",
    "Reported Value": "0.46 µM"
  },
  {
    "Molecule": "CNCC(=O)N[C@@H](CCCN=C(N)N)C(=O)N[C@H]1CC(=O)NCCCC[C@@H](C(=O)N[C@@H](Cc2c[nH]cn2)C(=O)N2CCC[C@H]2C(=O)N[C@@H](Cc2ccccc2)C(=O)O)NC(=O)[C@H](Cc2ccc(O)cc2)NC1=O (H-[Sar]RDYKHPF-OH; lactam 3-5)",
    "Property Name": "EC50",
    "Reported Value": "0.053 µM"
  },
  {
    "Molecule": "CNCC(=O)N[C@@H](CCCN=C(N)N)C(=O)N1C[C@@H]2C[C@H]1C(=O)N[C@@H](Cc1ccc(O)cc1)C(=O)N[C@H](C(=O)N[C@@H](Cc1c[nH]cn1)C(=O)N1CCC[C@H]1C(=O)N[C@@H](Cc1ccccc1)C(=O)O)CCSS2 (H-[Sar]R[Pro(4S-SH)]Y[hCys]HPF-OH; disulfide 3-5)",
    "Property Name": "EC50",
    "Reported Value": "0.44 µM"
  },
  {
    "Molecule": "CC[C@H](C)[C@H](NC(=O)[C@H](Cc1ccc(O)cc1)NC(=O)[C@@H](NC(=O)[C@@H](N)CCCN=C(N)N)C(C)C)C(=O)N[C@@H](Cc1c[nH]cn1)C(=O)N1CCC[C@H]1C(=O)N[C@@H](Cc1ccccc1)C(=O)O",
    "Property Name": "EC50",
    "Reported Value": "0.032 µM"
  }
]

Query string: Entry CNCC(=O)N[C@@H](CCCN=C(N)N)C(=O)N[C@H]1CCSSCC[C@@H](C(=O)N[C@@H](Cc2c[nH]cn2)C(=O)N2CCC[C@H]2C(=O)N[C@@H](Cc2ccccc2)C(=O)O)NC(=O)[C@H](Cc2ccc(O)cc2)NC1=O (H-[Sar]R[hCys]Y[hCys]HPF-OH; disulfide 3-5) has what EC50?
Result string: 0.0032 µM

Query string: Which EC50 is listed for `CC[C@H](C)[C@H](NC(=O)[C@H](Cc1ccc(O)cc1)NC(=O)[C@@H](NC(=O)[C@H](CCCNC(=N)N)NC(=O)[C@@H](N)CC(=O)O)C(C)C)C(=O)N[C@@H](Cc1cnc[nH]1)C(=O)N1CCC[C@H]1C(=O)N[C@@H](Cc1ccccc1)C(=O)O` ?
Result string: 0.0025 µM

Query string: Fill in: EC50 of CNCC(=O)N[C@@H](CCCN=C(N)N)C(=O)N[C@H]1CSS[C@@H]2C[C@@H](C(=O)N[C@@H](Cc3c[nH]cn3)C(=O)N3CCC[C@H]3C(=O)N[C@@H](Cc3ccccc3)C(=O)O)N(C2)C(=O)[C@H](Cc2ccc(O)cc2)NC1=O (H-[Sar]RCY[Pro(4R-SH)]HPF-OH; disulfide 3-5) is ___
Result string: 0.16 µM
